- System: U138-MG human glioma cell
- Assay Info: Cell proliferation analysis (MTT)
- Assay type: cell-based
- Measurement Setup: Homo sapiens, 48 h, 10 µM, two days, MTT
Classes based on activity at 10 µM: low bin: < 70%; mid bin: ≥ 70% and < 80%; high bin: ≥ 80%

- O=C1CCc2cc(OS(=O)(=O)c3ccc(Br)cc3)ccc2N1: low bin
- CC(C)CCn1cc(COc2ccc3c(c2)CCC(=O)N3)nn1: low bin
- O=C1CCc2cc(OCC(=O)Oc3ccccc3)ccc2N1: high bin
- O=C1CCc2cc(OC(=O)c3cccc([N+](=O)[O-])c3)ccc2N1: high bin
- O=C1CCc2cc(OC(=O)c3cccc(F)c3)ccc2N1: high bin
- COc1ccc(C(=O)Oc2ccc3c(c2)CCC(=O)N3)c(OC)c1: high bin
- O=C1CCc2cc(OC(=O)Nc3ccccc3)ccc2N1: low bin
- Cc1[nH]c2ccccc2c1/C=N/NC(=O)COc1ccc2c(c1)CCC(=O)N2: low bin
- CS(=O)(=O)Oc1ccc2c(c1)CCC(=O)N2: high bin
- CC(C)N(C(=O)Oc1ccc2c(c1)CCC(=O)N2)C(C)C: mid bin
- COc1ccc(/C=N/NC(=O)COc2ccc3c(c2)CCC(=O)N3)cc1: high bin
- CN(C(=O)Oc1ccc2c(c1)CCC(=O)N2)c1ccccc1: high bin
- CCOC(=O)COc1ccc2c(c1)CCC(=O)N2: high bin
- CCCC(CCC)C(=O)Oc1ccc2c(c1)CCC(=O)N2: high bin
- O=C1CCc2cc(OCC3CC(c4ccc(F)cc4)=NO3)ccc2N1 (centres unmarked): low bin
- O=C1CCc2cc(OC(=O)Nc3ccc(F)cc3)ccc2N1: high bin
- O=C(COc1ccc2c(c1)CCC(=O)N2)Nc1ccc2ncccc2c1: low bin
- O=C1CCc2cc(OC(=O)CN3CCN(c4ncccn4)CC3)ccc2N1: high bin
- C=Cc1ccc(COc2ccc3c(c2)CCC(=O)N3)cc1: low bin
- O=C1CCc2cc(OC(=O)Nc3ccccc3C(F)(F)F)ccc2N1: low bin
- O=C1CCc2cc(OC(=O)CCl)ccc2N1: high bin
- O=C(COc1ccc2c(c1)CCC(=O)N2)Nc1ccc(Br)cc1: high bin
- O=C(COc1ccc2c(c1)CCC(=O)N2)N/N=C1\C(=O)Nc2ccc(F)cc21: low bin
- C=CCN1C(=O)CCc2cc(OCCCCc3nnnn3C3CCCCC3)ccc21: low bin
- CCN(C)C(=O)Oc1ccc2c(c1)CCC(=O)N2: low bin
- O=C1CCc2cc(OCC3CC3)ccc2N1: mid bin
- Cc1ccc(CN2C(=O)CCc3cc(OCCCCc4nnnn4C4CCCCC4)ccc32)cc1: high bin
- CCCN1C(=O)CCc2cc(OCCCCc3nnnn3C3CCCCC3)ccc21: mid bin
- O=C1CCc2cc(OS(=O)(=O)c3ccc([N+](=O)[O-])cc3)ccc2N1: mid bin
- O=C(COc1ccc2c(c1)CCC(=O)N2)N/N=C1\C(=O)Nc2ccccc21: high bin
- O=C1CCc2cc(OC(=O)c3cccc4ccccc34)ccc2N1: low bin
- COc1ccc(C=NNC(=O)COc2ccc3c(c2)CCC(=O)N3)c(OC)c1: mid bin
